target: HIF1A; experiment: HeLa, 100 nM transfected, 24 h, mean of 3; conditions: ASO
Bases are written 5' to 3'; sugars and linkages follow in the same order, as letters with counts (s phosphorothioate, o phosphodiester; PS: all linkages phosphorothioate). C may stand for cytosine or 5-methylcytosine; the collection does not tell. l = locked nucleic acid (LNA); d = 2'-deoxy (DNA)
Returns one of satisfied or not satisfied; satisfied when caspase activation (% of PBS control) is >= 400.

1. GTTACTGCCTTCTTAC (sugars lddllddddddllldl, PS) = satisfied
2. TACTGCCTTCTTA (sugars l3 d7 l3, PS) = satisfied
3. CAAGCATCCTGTA (sugars l1 d2 l1 d7 l2, PS) = not satisfied
4. GTTACTGCCTTCTTAC (sugars l1 d1 l2 d7 l5, PS) = not satisfied
5. GTTACTGCCTTCTTAC (sugars l1 d2 l1 d10 l2, PS) = not satisfied
6. GTTACTGCCTTCTTAC (sugars l2 d11 l3, PS) = not satisfied
7. GTTACTGCCTTCTTAC (sugars ldllddddddddldll, PS) = not satisfied
8. GTTACTGCCTTCTTAC (sugars llldlddddddlldll, PS) = not satisfied
9. TGGCAAGCATCCTGTA (sugars llldlddddddldlll, PS) = satisfied
10. GTTACTGCCTTCTTAC (sugars ldlllddddddllldl, PS) = satisfied
11. TTACTGCCTTCTT (sugars l3 d9 l1, PS) = not satisfied
